B1: DNA topoisomerase 3-alpha, residues 812 to 851; numbered along this chain, Q13472 (parent)
chain: TCNCGQEAVLLTVRKEGPNRGRQFFKCNGGSCNFFLWADS

Variants of: B1
Assay: abundance fitness (aPCA) (normalised: wild type 0, dead -1); higher = more abundant; growth selection in yeast, the domain comes from the species named
Details: Homo sapiens
resultType: abundance fitness
Just the number, please.

Can you look up the measured abundance fitness of E7S for me?
-0.233

P18L ?
-0.352

E16R ?
-0.165
